B1: VTI1B (parent)
chain: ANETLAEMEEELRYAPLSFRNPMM

- Variants of: B1
- ASSAY_COMMENT: protein stability index of a GFP-peptide fusion (GPS, HEK-293T) (PSI 1-6); higher = more stable;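 also: lentivirally expressed fusions sorted by FACS into six bins by GFP to DsRed ratio, PSI derived from sequencing read proportions per bin multiplied by bin number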
- CONDITION_LABEL: c terminus: a fixed tail appended
Parameter threshold = 3. Response is YES when protein stability index meets or exceeds it, else NO.

Reported protein stability index at or above 3? ANETLAEMEEELRYAPLSFRNPMA [M24A]
YES

Reported protein stability index at or above 3? ANETLAEMEEELRYAPLSRRNPMM [F19R]
YES

Reported protein stability index at or above 3? ANETLAEMEEPLRYAPLSFRNPMM [E11P]
NO

Reported protein stability index at or above 3? ANETLAEMEEELRYAPLIFRNPMM [S18I]
NO

Reported protein stability index at or above 3? ANETLADMEEELRYAPLSFRNPMM [E7D]
NO

Reported protein stability index at or above 3? ANETLAEMEEELRYAPLSFRFPMM [N21F]
YES
